Data provenance: patent US11944622B2

# test system: APJ Receptor (Homo sapiens, UniProt P35414)
# Sequence (P35414 whole entry, the tested form may be a part): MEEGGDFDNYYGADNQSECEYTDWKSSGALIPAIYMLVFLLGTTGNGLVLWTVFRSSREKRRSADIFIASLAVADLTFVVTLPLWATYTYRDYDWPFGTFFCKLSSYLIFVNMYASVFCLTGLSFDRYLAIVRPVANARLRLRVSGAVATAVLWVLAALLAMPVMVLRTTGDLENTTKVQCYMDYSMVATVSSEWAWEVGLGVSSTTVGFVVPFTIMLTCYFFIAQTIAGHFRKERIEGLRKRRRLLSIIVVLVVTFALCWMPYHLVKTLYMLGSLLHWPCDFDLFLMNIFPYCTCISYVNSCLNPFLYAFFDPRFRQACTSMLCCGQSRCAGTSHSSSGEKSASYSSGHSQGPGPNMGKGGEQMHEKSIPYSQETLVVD
# method notes: APJ cAMP assay (DiscoverX enzyme fragment complementation; inhibition of forskolin-stimulated cAMP)
# test context: CHO-K1 cell line stably expressing the APJ Receptor; EC80 forskolin; 30 minutes at 37° C.; read-out: Potency Range (APJ cAMP EC50)
pEC50: −log10 of the molar value.
endpoint: pEC50

The following molecules each have a reported value; give each one's pEC50.
1. CCOc1cccc(-c2nc3nc(Cl)c(NS(=O)(=O)N4CCOCC4)nc3n2-c2c(OC)cccc2OC)n1 [Example 98]
2. CCOc1cccc(-c2nc3ncc(NC)nc3n2-c2c(OC)cccc2OC)n1 [Example 9]

Response line:
["7.00 to 9.00", "7.00 to 9.00"]

// each listed molecule needs a value for pEC50
1. CCOc1cccc(-c2nc3nc(NS(=O)(=O)CCC4CC4)cnc3n2-c2c(OC)cccc2OC)n1 [Example 44]
2. CCOc1cccc(-c2nc3nc(NCc4ccc(OC)cc4)cnc3n2-c2c(OC)cccc2OC)n1 [Example 46]

Response line:
1: > 9.00; 2: > 9.00

Prompt line: Consider the molecule CCOc1cccc(-c2nc3ncc(C(=O)NCc4ccccc4)nc3n2-c2c(OC)cccc2OC)n1 [Example 8] and give its measured pEC50.
Response line: 5.00 to 7.00
